Would you mind telling me the reported BTX bond, 10 μM, % inhibition of each entry?
# System: batrachotoxin (BTX) binding site (binding site 2) of the sodium channel
# test.protocol: Bond test on the sodium channel, binding site 2 (BTX bond), [3H]-batrachotoxinin A20 α-benzoate displacement
# condition.label: rat cerebrocortex synaptosomes
Answers are plain numbers, in %.

Known results for compounds:
- compound: "O=C(C1=NOC2(CCN(S(=O)(=O)c3cc(Cl)ccc3Cl)CC2)C1)N1CCN(Cc2ccccc2)CC1"
  readout.type: "BTX bond, 10 μM, % inhibition"
  readout.value: 61
- compound: "O=C(NCc1cccs1)C1=NOC2(CCN(C(=O)c3ccccc3Cl)CC2)C1"
  readout.type: "BTX bond, 10 μM, % inhibition"
  readout.value: 56
- compound: "CC1CCCCN1CCCNC(=O)C1=NOC2(CCN(S(=O)(=O)c3cc(Cl)ccc3Cl)CC2)C1 (centres unmarked)"
  readout.type: "BTX bond, 10 μM, % inhibition"
  readout.value: 88
- compound: "Cc1ccc(C(C)NC(=O)C2=NOC3(CCN(S(=O)(=O)c4cccs4)CC3)C2)cc1 (centres unmarked)"
  readout.type: "BTX bond, 10 μM, % inhibition"
  readout.value: 60
- compound: "O=C(Nc1ccccc1)C1=NOC2(CCN(C(=O)c3cccc(Cl)c3Cl)CC2)C1"
  readout.type: "BTX bond, 10 μM, % inhibition"
  readout.value: 60

// input: 3 compounds below; output: BTX bond, 10 μM, % inhibition for each
1. COCCOCC(=O)N1CCC2(CC1)CC(C(=O)NCc1ccccc1)=NO2
2. O=C(NCc1cccs1)C1=NOC2(CCN(C(=O)C=Cc3ccccc3)CC2)C1
3. Cc1onc(-c2c(Cl)cccc2Cl)c1C(=O)N1CCC2(CC1)CC(C(=O)NCc1cccs1)=NO2

Output line:
42
62
70
